test: Pharmacokinetic food-effect study, single 20 mg/kg dose, healthy subjects (Example 17); conditions: human, in vivo, po, 20 mg/kg, AUC0-36, cannabidiol, single 20 mg/kg oral, fasted; mean ± SD
outcome.measure: AUC(0-t)

• C=C(C)[C@@H]1CCC(C)=C[C@H]1c1c(O)cc(CCCCC)cc1O = 5 ng·h/mL

* * *

assay: clinical; conditions: human, in vivo, po, 20 mg/kg, Vd/F, cannabidiol, single 20 mg/kg oral dose of cannabidiol solution, fed; mean
outcome.measure: Vd/F (L/kg)

* C=C(C)[C@@H]1CCC(C)=C[C@H]1c1c(O)cc(CCCCC)cc1O [cannabidiol] | 133

Cited source for all entries: patent US11911361B2
